Test system: CCRIS mutagenicity, Ames/micronucleus/aberration tests
Assay: CCRIS mutagenicity studies
Conditions: Test System: AMES SALMONELLA TYPHIMURIUM; Strain/Indicator: TA100; Metabolic Activation: RAT, NADPH-FORTIFIED HOMOGENIZED HEPATOCYTES, AROCLOR 1254; Method: PREINCUBATION
Calls of active or inactive are those of the source. No rule for the calls is given here.
observation-type: mutagenic call

Guide cases for mutagenic call, answers given:
Cc1cccc2ccc3cc4ccccc4cc3c12	active; positive
Cc1c2ccccc2cc2c1ccc1ccccc12	active; positive
Cc1cc2cc3ccccc3c3ccc4cccc1c4c23	active; positive
Cc1ccc2ccc3c4ccccc4cc4ccc1c2c43	active; positive

Okay, next one:
State its mutagenic call: Cc1cc2cccc3ccc4cc5ccccc5c1c4c32 active; positive
